target: recombinant rat GluN1/GluN2D (Rattus norvegicus, UniProt P35439+Q62645); construct: expressed in transfected cells; host or cells: Xenopus laevis oocytes (Ecocyte) injected with in vitro transcribed cRNA; test: Two-electrode voltage-clamp (TEVC) recordings in Xenopus laevis oocytes, GluN1/GluN2D; assay type: cell-based; conditions: Tables 11-13; read-out: EC50 & Max Effect: 2D Max (%)
Sequence (Q62645 28-1323, other chains not shown): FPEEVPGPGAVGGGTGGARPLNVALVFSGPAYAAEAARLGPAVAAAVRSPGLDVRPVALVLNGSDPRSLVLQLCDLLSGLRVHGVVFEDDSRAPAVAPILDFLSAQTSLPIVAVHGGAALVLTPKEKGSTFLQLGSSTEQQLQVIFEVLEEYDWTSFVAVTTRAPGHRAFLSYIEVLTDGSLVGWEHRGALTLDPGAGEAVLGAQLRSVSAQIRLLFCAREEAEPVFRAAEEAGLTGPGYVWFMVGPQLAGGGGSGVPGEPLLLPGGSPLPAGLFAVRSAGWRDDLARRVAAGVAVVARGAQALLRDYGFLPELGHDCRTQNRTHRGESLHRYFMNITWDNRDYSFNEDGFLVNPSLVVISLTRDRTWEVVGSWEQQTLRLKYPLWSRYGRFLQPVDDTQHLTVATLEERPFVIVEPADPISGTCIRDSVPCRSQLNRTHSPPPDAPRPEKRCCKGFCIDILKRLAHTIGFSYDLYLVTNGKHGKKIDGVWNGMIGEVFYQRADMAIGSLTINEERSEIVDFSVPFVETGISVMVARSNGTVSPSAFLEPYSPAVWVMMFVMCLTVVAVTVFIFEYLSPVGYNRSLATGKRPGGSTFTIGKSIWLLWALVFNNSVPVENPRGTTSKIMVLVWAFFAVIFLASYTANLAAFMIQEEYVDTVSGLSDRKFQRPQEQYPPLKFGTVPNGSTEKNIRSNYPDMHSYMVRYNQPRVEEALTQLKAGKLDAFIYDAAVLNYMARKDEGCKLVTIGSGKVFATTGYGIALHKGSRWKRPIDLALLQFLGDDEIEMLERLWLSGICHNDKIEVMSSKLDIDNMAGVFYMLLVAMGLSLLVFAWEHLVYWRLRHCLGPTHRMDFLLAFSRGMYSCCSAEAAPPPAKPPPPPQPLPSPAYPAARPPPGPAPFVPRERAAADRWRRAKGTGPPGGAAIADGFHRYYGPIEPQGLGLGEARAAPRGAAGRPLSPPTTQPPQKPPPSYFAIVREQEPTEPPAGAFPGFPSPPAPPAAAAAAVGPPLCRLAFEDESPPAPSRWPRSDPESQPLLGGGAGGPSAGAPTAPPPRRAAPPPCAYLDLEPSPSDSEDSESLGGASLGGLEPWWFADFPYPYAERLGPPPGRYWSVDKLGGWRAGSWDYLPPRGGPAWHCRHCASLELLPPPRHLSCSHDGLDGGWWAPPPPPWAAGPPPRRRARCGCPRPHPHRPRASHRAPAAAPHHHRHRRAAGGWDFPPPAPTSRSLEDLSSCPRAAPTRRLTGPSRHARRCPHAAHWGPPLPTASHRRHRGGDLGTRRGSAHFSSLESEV
Recorded Metric: Emax (%)

Compound	Unit	Endpoint Value
COc1ccc(OCC2c3cc(C)c(C)cc3CCN2C(=O)c2cccc(Br)c2)cc1 (centres unmarked) [drawing 33 R1=Br R2=H R3=H R4=Me R5=Me]	%	211
COc1ccc(OCC2c3ccc(SCc4ccccc4)cc3CCN2C(=O)c2cccc(Cl)c2)cc1 (centres unmarked) [drawing 33 R1=Cl R2=H R3=H R4=SBn R5=H]	%	213
COc1ccc(OCC2c3cc(OC)c(OC)cc3CCN2C(=O)c2ccccc2)cc1 (centres unmarked) [drawing 33 R1=H R2=H R3=H R4=OMe R5=OMe]	%	156

P. CCOc1ccc(OCC2c3ccc(OC4CCCC4)cc3CCN2C(=O)c2cccc(F)c2)cc1 (centres unmarked)
Q. COc1ccc(OCC2c3ccc(N(C)C)cc3CCN2C(=O)c2cccc(Br)c2)cc1 (centres unmarked) [drawing 33 R1=Br R2=H R3=H R4=NMe2 R5=H]
Q: Which shows the larger Emax value: P or Q ? Answer format: the label of the selected item.
A: Q

====

biological target: recombinant rat GluN1/GluN2D (Rattus norvegicus, UniProt Q62645); construct: expressed in transfected cells; host or cells: Xenopus laevis oocytes (Ecocyte) injected with in vitro transcribed cRNA; assay: Two-electrode voltage-clamp (TEVC) recordings in Xenopus laevis oocytes, GluN1/GluN2D; type: cell-based; conditions: Tables 11-13; read-out: EC50 & Max Effect: 2D
Recorded Metric: EC50 (nM)
Express your answer in nM, writing the number without its unit.

Just so you know, measured EC50 for COc1ccc(OCC2c3ccc(OC(C)C)cc3CCN2C(=S)c2cccc(Cl)c2)cc1 (racemic) came out at 430

====

target: recombinant rat GluN1/GluN2D (Rattus norvegicus); construct: expressed in transfected cells; host or cells: Xenopus laevis oocytes (Ecocyte) injected with in vitro transcribed cRNA; assay: Two-electrode voltage-clamp (TEVC) recordings in Xenopus laevis oocytes, GluN1/GluN2D; assay type: cell-based; conditions: at 30 µM
Recorded Metric: GluN2D response % at 30 µM (% at 30)

Compound	System Under Test	Recorded Metric	Endpoint Value
COc1ccc(OCC2c3ccc(OC)cc3CCN2C(=O)C=CCl)cc1 (stereo not shown)	recombinant rat GluN1/GluN2D (Rattus norvegicus)	GluN2D response % at 30 µM	88
CCOc1ccc(OCC2c3ccc(OC(C)C)cc3CCN2C(=O)C=C(C)C(F)(F)F)cc1 (stereo not shown)	recombinant rat GluN1/GluN2D (Rattus norvegicus)	GluN2D response % at 30 µM	146
CCOCC(=O)N1CCc2cc(OC)ccc2C1COc1ccc(OC)cc1 (stereo not shown)	recombinant rat GluN1/GluN2D (Rattus norvegicus)	GluN2D response % at 30 µM	114

====

target: recombinant rat GluN1/GluN2B (Rattus norvegicus, UniProt Q00960); construct: expressed in transfected cells; host or cells: Xenopus laevis oocytes (Ecocyte) injected with in vitro transcribed cRNA; assay: Two-electrode voltage-clamp (TEVC) recordings in Xenopus laevis oocytes, GluN1/GluN2B; format: cell-based; conditions: at 30 µM
Sequence (Q00960 27-1482, other chains not shown): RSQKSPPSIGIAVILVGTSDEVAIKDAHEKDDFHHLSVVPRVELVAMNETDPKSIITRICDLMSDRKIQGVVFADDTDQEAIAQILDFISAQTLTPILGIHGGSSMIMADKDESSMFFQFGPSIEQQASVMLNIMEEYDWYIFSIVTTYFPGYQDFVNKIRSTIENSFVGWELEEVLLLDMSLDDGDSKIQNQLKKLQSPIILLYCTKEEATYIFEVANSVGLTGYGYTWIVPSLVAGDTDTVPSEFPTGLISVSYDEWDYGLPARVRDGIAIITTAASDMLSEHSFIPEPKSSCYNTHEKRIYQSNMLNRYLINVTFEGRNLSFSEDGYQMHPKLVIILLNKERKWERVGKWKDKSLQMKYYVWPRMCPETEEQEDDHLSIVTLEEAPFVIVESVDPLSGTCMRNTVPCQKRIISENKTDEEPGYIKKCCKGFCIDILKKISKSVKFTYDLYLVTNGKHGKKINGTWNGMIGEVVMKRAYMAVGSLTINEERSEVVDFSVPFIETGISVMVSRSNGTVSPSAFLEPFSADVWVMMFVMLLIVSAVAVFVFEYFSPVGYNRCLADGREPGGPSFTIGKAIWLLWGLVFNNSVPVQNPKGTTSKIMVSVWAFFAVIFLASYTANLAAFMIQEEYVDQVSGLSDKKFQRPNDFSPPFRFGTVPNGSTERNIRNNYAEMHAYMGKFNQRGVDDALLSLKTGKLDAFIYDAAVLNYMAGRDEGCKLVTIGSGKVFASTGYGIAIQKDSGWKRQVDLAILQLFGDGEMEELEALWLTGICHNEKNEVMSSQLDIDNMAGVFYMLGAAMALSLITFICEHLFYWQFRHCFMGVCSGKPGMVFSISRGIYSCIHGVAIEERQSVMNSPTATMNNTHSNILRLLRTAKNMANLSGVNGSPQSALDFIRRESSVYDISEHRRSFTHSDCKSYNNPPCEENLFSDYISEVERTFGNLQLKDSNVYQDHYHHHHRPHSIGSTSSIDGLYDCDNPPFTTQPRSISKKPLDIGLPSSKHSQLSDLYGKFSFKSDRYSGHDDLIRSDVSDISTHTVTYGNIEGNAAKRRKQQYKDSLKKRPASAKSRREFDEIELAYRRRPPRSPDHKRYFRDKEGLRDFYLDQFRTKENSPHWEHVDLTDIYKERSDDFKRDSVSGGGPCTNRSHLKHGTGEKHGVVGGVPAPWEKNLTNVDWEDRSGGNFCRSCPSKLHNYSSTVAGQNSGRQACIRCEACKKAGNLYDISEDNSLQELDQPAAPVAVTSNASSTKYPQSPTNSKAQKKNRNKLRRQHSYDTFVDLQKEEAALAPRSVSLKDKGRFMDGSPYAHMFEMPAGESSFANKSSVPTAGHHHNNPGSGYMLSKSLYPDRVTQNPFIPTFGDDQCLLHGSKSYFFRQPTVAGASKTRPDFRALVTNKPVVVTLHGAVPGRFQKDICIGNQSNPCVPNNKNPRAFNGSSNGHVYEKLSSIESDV
Recorded Metric: GluN2B response % at 30 µM (% at 30)

Compound	Unit	GluN2B response % at 30 µM
COc1ccc(OCC2c3ccc(OC)cc3CCN2C(=O)C=CC(F)(F)F)cc1 (stereo not drawn) [1180-253]	% at 30	101
COc1ccc(OCC2c3ccc(OC)cc3CCN2C(=O)c2ccc(Cl)o2)cc1 (stereo not drawn) [1180-234]	% at 30	107
